Provide the reported IC50 of each item.
# tested-target: UniProtKB Q9BPV8
# Sequence (Q9BPV8 22-354 limits assumed): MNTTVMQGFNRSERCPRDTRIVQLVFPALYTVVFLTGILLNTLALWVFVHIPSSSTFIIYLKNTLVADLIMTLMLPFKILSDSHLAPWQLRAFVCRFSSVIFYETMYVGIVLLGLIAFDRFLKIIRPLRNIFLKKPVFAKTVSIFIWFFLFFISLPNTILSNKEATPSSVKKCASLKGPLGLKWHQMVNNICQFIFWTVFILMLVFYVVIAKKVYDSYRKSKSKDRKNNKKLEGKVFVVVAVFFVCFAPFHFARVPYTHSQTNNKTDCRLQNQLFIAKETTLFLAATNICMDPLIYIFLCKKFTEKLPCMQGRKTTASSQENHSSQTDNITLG
# procedure-details: forskolin-induced cAMP formation in hP2Y13-CHO-K1 cells
# stated-conditions: hP2Y13-CHO-K1 cells, forskolin 3 μM, 12 min; read-out: IC50 for inhibition of forskolin-induced cAMP accumulation
Report the figure in nM without appending any unit label.

Entry Nc1ncnc2c1ncn2[C@@H]1O[C@H](COP(=O)(O)OP(=O)(O)O)[C@@H](O)[C@H]1O [ADP, adenosine diphosphate, reference compound] ; assay system UniProtKB Q9BPV8; IC50 recorded at 0.6

Entry CSCCNc1nc(SCCC(F)(F)F)nc2c1ncn2[C@@H]1O[C@H](COP(=O)(O)OP(=O)(O)C(Cl)(Cl)P(=O)(O)O)[C@@H](O)[C@H]1O [AR-C69931MX] ; assay system UniProtKB Q9BPV8; IC50 recorded at 0.5
